tested on: Plasmodium falciparum; assay: Antimalarial activity against Plasmodium falciparum IPC5202; assay type: functional, organism-based
Listing: IC50 of selected compounds
Express your answer in nM, writing the number without its unit.

# count of solved cases: 2
INSERT INTO results (compound, experimental_system, units, readout_number) VALUES
  ('C1C2CC3CC1CC(C2)[C@]31OO[C@@]2(CCC(Nc3nn[nH]n3)CC2)O1 (stereo partly drawn)', 'Plasmodium falciparum', 'nM', 6.1),
  ('C[C@H]1[C@@H](O)O[C@@H]2O[C@@]3(C)CC[C@H]4[C@H](C)CC[C@@H]1[C@@]24OO3', 'Plasmodium falciparum', 'nM', 6.2);

Proceeding to the next compound to report its IC50.
The recorded IC50 for Cn1nnc(NCC2CC[C@]3(CC2)OO[C@]2(O3)C3CC4CC(C3)CC2C4)n1 (stereo partly drawn) is 3.4

----------
assay: Selectivity index, ratio of IC50 for HEK293 cells to IC50 for Plasmodium falciparum INDO; format: toxicity; conditions: human, read-out: Ratio IC50
Readout name: selectivity ratio

Value of measured selectivity ratio for the entry C=C(c1ccc2c(c1)CCCC2)C1COC2(CCCCC2)OO1 (stereo unspecified) : 589

----------
Let's look at some compounds and their measured pIC50.
experiment: Cytotoxicity against human MRC5 cells; assay type: toxicity, cell-based
Just the number, please; pIC50 means minus log10 of the concentration in mol/L.

INSERT INTO measurements (structure_smiles, readout_number) VALUES
  ('C[C@H]1C(=O)O[C@@H]2O[C@]3(C)CC[C@H]4N(Cc5ccc(OCCN6CCOCC6)cc5)CC[C@@H]1[C@@]24OO3', 4.45);

Now look at this entry.
Lab book: pIC50 of C[C@H]1C(=O)O[C@@H]2O[C@]3(C)CC[C@H]4N(Cc5ccccc5)CC[C@@H]1[C@@]24OO3 noted as 3.79

----------
LC50 by entry:
assay: Toxicity in brine shrimp; conditions: artemia salina
Value expressed in µg/mL; do not type the unit.

Example entries and their recorded answers appear below.
INSERT INTO measurements (compound, readout_name, readout_number) VALUES
  ('O=P1(N(CCCl)CCCl)NCCCO1 (stereo not drawn) [CYCLOPHOSPHAMIDE ANHYDROUS]', 'LC50', 1.08),
  ('C[C@H]1[C@@H](OC(=O)c2ccc3[nH]cnc3c2)O[C@@H]2O[C@]3(C)CC[C@H]4[C@H](C)CC[C@@H]1[C@@]24OO3', 'LC50', 362);

# ---- query compound ----
The reported value for C[C@H]1[C@H](OC(=O)CCCc2ccccc2)O[C@@H]2O[C@]3(C)CC[C@H]4[C@H](C)CC[C@@H]1[C@@]24OO3 in terms of LC50 is 139

----------
system: Plasmodium berghei; assay: Antimalarial activity against Plasmodium berghei infected in po dosed mouse; assay type: functional
Yes if ED90 is below 2 mg/kg. No if not; exact matches included in No.

INSERT INTO results (structure_smiles, experimental_system, assigned_class) VALUES
  ('C[C@H]1[C@H](c2cccn2C)O[C@@H]2O[C@]3(C)CC[C@H]4[C@H](C)CC[C@@H]1[C@@]24OO3', 'Plasmodium berghei', 'No'),
  ('CCO[C@H]1O[C@@H]2O[C@]3(C)CC[C@H]4[C@H](C)CC[C@@H]([C@H]1C)[C@@]24OO3', 'Plasmodium berghei', 'No'),
  ('C[C@H]1[C@H](NC2CCOCC2)O[C@@H]2O[C@]3(C)CC[C@H]4[C@H](C)CC[C@@H]1[C@@]24OO3', 'Plasmodium berghei', 'Yes'),
  ('C[C@H]1[C@H](NC2CCN(Cc3ccccc3)CC2)O[C@@H]2O[C@]3(C)CC[C@H]4[C@H](C)CC[C@@H]1[C@@]24OO3', 'Plasmodium berghei', 'No');

Next up:
Prompt: Please state whether ED90 is below 2 mg/kg for C[C@H]1[C@H](NC2CCN(c3ncccn3)CC2)O[C@@H]2O[C@]3(C)CC[C@H]4[C@H](C)CC[C@@H]1[C@@]24OO3
Response: Yes
